The reported measurements were obtained from the RNAGym collection of RNA variant scans (doi:10.7554/elife.80360).

B1: HDV Ribozyme (parent)
chain: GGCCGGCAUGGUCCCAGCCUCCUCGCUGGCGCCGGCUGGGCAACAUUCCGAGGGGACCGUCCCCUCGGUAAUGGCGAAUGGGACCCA

Variants of: B1
measurement_notes: self-cleavage, relative activity (ratio to wild type); higher = more cleavage; co-transcriptional
measured_quantity: self-cleavage

Asked: Reported self-cleavage, variant U69C G76U : ____
Given back: 1.29
